Biological target: UniProt:Q9UGN5
Sequence (Q9UGN5 whole entry): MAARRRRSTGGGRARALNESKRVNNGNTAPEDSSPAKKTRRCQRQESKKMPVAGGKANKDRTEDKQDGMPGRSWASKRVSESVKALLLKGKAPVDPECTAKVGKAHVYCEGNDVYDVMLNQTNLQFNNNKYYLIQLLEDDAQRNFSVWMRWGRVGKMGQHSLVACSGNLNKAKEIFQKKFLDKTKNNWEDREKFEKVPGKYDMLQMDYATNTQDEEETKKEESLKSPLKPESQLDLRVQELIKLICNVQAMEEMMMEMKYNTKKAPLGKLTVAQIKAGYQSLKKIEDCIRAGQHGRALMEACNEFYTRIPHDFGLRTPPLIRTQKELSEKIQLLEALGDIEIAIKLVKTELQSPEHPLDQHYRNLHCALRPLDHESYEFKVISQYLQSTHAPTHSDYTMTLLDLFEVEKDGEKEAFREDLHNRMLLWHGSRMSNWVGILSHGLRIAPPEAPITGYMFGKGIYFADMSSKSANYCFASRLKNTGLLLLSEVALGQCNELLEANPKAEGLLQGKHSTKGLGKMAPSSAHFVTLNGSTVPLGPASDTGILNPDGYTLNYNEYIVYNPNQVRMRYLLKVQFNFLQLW
Assay: Inhibition of human recombinant PARP2 incubated for 1 hr using histone substrate at 1 uM by luminescence based assay
property: inhibition (%)
Provide only the numeric value, understood in %.

Entry O=c1[nH]c(-c2ccccc2)cc2c1sc1ccccc12 has what inhibition?
11

Entry O=c1[nH]c2ccccc2c2ccsc12 has what inhibition?
91

Entry O=c1[nH]c(-c2ccccc2)nc2c3c(sc12)CCCC3 has what inhibition?
11

Entry COc1ccc2sc3c(O)nc4ccccc4c3c2c1 has what inhibition?
17

Entry O=c1[nH]ccc2c1sc1ccccc12 has what inhibition?
34

----------
// pIC50 lookup, one value per entry
Target: Poly [ADP-ribose] polymerase tankyrase-1 (Homo sapiens, UniProt O95271)
Sequence (O95271 whole entry): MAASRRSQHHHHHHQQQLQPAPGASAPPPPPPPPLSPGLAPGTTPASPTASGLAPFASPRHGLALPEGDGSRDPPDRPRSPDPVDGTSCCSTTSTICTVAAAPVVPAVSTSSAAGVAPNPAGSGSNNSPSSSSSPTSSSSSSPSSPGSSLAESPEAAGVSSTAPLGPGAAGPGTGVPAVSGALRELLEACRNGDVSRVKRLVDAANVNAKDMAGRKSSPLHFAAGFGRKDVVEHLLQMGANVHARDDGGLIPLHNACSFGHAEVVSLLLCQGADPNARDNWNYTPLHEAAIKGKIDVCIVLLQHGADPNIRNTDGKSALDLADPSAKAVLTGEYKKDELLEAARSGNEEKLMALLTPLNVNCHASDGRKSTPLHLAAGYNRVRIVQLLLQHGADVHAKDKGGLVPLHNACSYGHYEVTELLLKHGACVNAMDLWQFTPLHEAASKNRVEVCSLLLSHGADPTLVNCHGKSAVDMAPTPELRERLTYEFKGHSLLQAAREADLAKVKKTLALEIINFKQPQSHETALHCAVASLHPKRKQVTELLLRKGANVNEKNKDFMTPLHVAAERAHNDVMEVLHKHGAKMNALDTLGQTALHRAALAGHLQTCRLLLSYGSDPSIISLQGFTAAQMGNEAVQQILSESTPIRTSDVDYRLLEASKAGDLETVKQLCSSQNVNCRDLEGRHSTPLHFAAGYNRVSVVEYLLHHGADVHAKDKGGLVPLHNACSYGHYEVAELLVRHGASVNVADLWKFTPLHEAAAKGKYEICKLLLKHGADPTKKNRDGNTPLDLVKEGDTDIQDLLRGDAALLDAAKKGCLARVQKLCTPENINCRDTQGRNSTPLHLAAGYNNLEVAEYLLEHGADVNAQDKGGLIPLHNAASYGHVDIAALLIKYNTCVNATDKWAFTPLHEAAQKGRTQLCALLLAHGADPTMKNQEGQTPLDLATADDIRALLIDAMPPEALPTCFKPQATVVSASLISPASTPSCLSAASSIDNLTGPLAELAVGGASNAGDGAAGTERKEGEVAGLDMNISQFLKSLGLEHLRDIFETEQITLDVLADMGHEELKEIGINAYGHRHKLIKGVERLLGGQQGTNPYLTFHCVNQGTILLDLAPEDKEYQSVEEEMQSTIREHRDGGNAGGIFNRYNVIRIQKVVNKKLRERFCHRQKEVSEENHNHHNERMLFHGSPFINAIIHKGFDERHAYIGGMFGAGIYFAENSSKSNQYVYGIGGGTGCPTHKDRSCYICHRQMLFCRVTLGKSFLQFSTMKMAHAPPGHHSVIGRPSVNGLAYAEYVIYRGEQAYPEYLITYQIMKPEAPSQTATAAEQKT
Test: Inhibition of GST-tagged human recombinant TNKS1 incubated for 1 hr using NAD+, biotinylated NAD+ and activated DNA by luminescence based assay
// returns pIC50 (minus log10 of molar concentration), number only

Consider the following illustrative entries.
structure.string	property	assay.result
O=c1[nH]c(-c2ccccc2)cc2c1sc1ccccc12	pIC50	6.74
CC(C)(C)c1ccc(-c2nc3c(sc4ccccc43)c(=O)[nH]2)cc1	pIC50	7.67
O=c1[nH]c2ccccc2c2c1sc1ccccc12	pIC50	7.05

From here, focus on the item given below.
Entry Cc1ccc(-c2nc3c(sc4ccccc43)c(=O)[nH]2)cc1 has what pIC50?
7.71

All values here come from ChEMBL document CHEMBL3351316.
